test: Therapeutic index, ratio of MHC10 for hemolytic activity in human RBC to MIC95 against Staphylococcus aureus ATCC 29213; format: toxicity; details: human red blood cells (erythrocytes), read-out: TI
measuredParameter: selectivity ratio

substance: H-AARIILRFRFR-NH2
measuredParameter: selectivity ratio
valueObserved: 128

substance: H-AARIILRARFR-NH2
measuredParameter: selectivity ratio
valueObserved: 90.5

substance: H-AARIILRNRFR-NH2
measuredParameter: selectivity ratio
valueObserved: 2

====

Listing: MIC95 of selected substances
system: Staphylococcus aureus; assay: Antibacterial activity against Staphylococcus aureus ATCC 29213 measured after 18 to 24 hrs in presence of MgCl2; type: functional

substance: H-AARIILRPRFR-NH2
MIC95: > 128 µM
--
substance: H-AARIILRNRFR-NH2
MIC95: > 128 µM
--
substance: H-AARIILRYRFR-NH2
MIC95: 8 µM
--
substance: H-AAKIILNPKFR-NH2
MIC95: > 128 µM
--
substance: H-AARIILRDRFR-NH2
MIC95: > 128 µM
--
substance: H-AARIILRIRFR-NH2
MIC95: 2 µM
--
substance: H-AARIILRGRFR-NH2
MIC95: 16 µM
--
substance: H-AARIILRTRFR-NH2
MIC95: 32 µM
--
substance: H-AARRILRWIFR-NH2
MIC95: 8 µM
--
substance: H-AARIILRWRFR-NH2
MIC95: 2 µM
